- Test system: Escherichia coli TOP10;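 note: peptides expressed intracellularly from a pBAD plasmid library in pooled LB shake-flask culture, induced with 0.3% L-arabinose, DNA abundance read by NGS, three biological replicates, DESeq2 with apeglm shrinkage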
- procedure details: shrunken log2 fold change of peptide-encoding DNA abundance (4.5 h post-induction vs induction); higher = less antimicrobial activity (less host growth inhibition)
- condition details: time post-induction: 4.5 h; library: site-saturation at positions 5, 18, 19, 20
Here the recorded shrunken log2 fold change is given for each entry.
property: shrunken log2 fold change

| sequence entry | property | recorded value |
| --- | --- | --- |
| RRIRKRPPRLPRPRPRPVCAPRP | shrunken log2 fold change | 0.904 |
| RRIRGRPPRLPRPRPRPVGWPRP | shrunken log2 fold change | 1.26 |
| RRIRLRPPRLPRPRPRPICDPRP | shrunken log2 fold change | 0.0695 |
| RRIRNRPPRLPRPRPRPLGIPRP | shrunken log2 fold change | -0.169 |
| RRIRKRPPRLPRPRPRPMPEPRP | shrunken log2 fold change | -0.0371 |
| RRIRGRPPRLPRPRPRPMGLPRP | shrunken log2 fold change | -0.0139 |
| RRIRSRPPRLPRPRPRPRYVPRP | shrunken log2 fold change | -0.597 |
| RRIRQRPPRLPRPRPRPFSGPRP | shrunken log2 fold change | -0.0802 |
| RRIRHRPPRLPRPRPRPYALPRP | shrunken log2 fold change | -0.078 |
| RRIRGRPPRLPRPRPRPWLTPRP | shrunken log2 fold change | 0.134 |
| RRIRSRPPRLPRPRPRPNKTPRP | shrunken log2 fold change | -0.286 |
| RRIRMRPPRLPRPRPRPRRGPRP | shrunken log2 fold change | 1.09 |
| RRIRWRPPRLPRPRPRPDFTPRP | shrunken log2 fold change | 0.15 |
| RRIRERPPRLPRPRPRPKPSPRP | shrunken log2 fold change | 0.229 |
| RRIRERPPRLPRPRPRPDCYPRP | shrunken log2 fold change | -0.0856 |
| RRIRHRPPRLPRPRPRPEYVPRP | shrunken log2 fold change | -0.0134 |
| RRIRVRPPRLPRPRPRPCGPPRP | shrunken log2 fold change | -0.0876 |
| RRIRCRPPRLPRPRPRPQSMPRP | shrunken log2 fold change | -0.419 |
| RRIRNRPPRLPRPRPRPITWPRP | shrunken log2 fold change | -0.0587 |
| RRIRNRPPRLPRPRPRPCGCPRP | shrunken log2 fold change | 0.0239 |
| RRIRPRPPRLPRPRPRPQWFPRP | shrunken log2 fold change | -0.0872 |
| RRIRGRPPRLPRPRPRPQCQPRP | shrunken log2 fold change | 0.316 |
| RRIRNRPPRLPRPRPRPYIQPRP | shrunken log2 fold change | -0.244 |
| RRIRVRPPRLPRPRPRPNNPPRP | shrunken log2 fold change | -0.352 |
| RRIRSRPPRLPRPRPRPLRHPRP | shrunken log2 fold change | 0.375 |
| RRIRARPPRLPRPRPRPDDHPRP | shrunken log2 fold change | 0.432 |
| RRIRHRPPRLPRPRPRPIHIPRP | shrunken log2 fold change | -0.733 |
| RRIRFRPPRLPRPRPRPVNCPRP | shrunken log2 fold change | -0.15 |
| RRIRKRPPRLPRPRPRPATPPRP | shrunken log2 fold change | 0.939 |
| RRIRMRPPRLPRPRPRPEPQPRP | shrunken log2 fold change | 2.17 |
| RRIRYRPPRLPRPRPRPSPYPRP | shrunken log2 fold change | -0.709 |
| RRIRMRPPRLPRPRPRPMSNPRP | shrunken log2 fold change | 0.0851 |
| RRIRMRPPRLPRPRPRPHLFPRP | shrunken log2 fold change | -0.0118 |
| RRIRTRPPRLPRPRPRPMRDPRP | shrunken log2 fold change | 0.00292 |
| RRIRKRPPRLPRPRPRPQFNPRP | shrunken log2 fold change | -0.281 |
| RRIRMRPPRLPRPRPRPNYYPRP | shrunken log2 fold change | -0.576 |
| RRIRKRPPRLPRPRPRPIKWPRP | shrunken log2 fold change | 0.00487 |
| RRIRFRPPRLPRPRPRPLMRPRP | shrunken log2 fold change | 0.278 |
| RRIRYRPPRLPRPRPRPHCSPRP | shrunken log2 fold change | -0.239 |
| RRIRERPPRLPRPRPRPFDTPRP | shrunken log2 fold change | -0.267 |
| RRIRPRPPRLPRPRPRPWLYPRP | shrunken log2 fold change | -0.0765 |
| RRIRVRPPRLPRPRPRPNMPPRP | shrunken log2 fold change | -0.0801 |
| RRIRWRPPRLPRPRPRPGTPPRP | shrunken log2 fold change | 0.356 |
| RRIRIRPPRLPRPRPRPSTCPRP | shrunken log2 fold change | -0.548 |
| RRIRPRPPRLPRPRPRPFCVPRP | shrunken log2 fold change | 0.156 |
| RRIRRRPPRLPRPRPRPWVTPRP | shrunken log2 fold change | -0.0822 |
| RRIRMRPPRLPRPRPRPWSSPRP | shrunken log2 fold change | -0.145 |
| RRIRYRPPRLPRPRPRPGQIPRP | shrunken log2 fold change | -0.0348 |
| RRIRFRPPRLPRPRPRPEYGPRP | shrunken log2 fold change | -0.621 |
| RRIRSRPPRLPRPRPRPCCLPRP | shrunken log2 fold change | -0.125 |
| RRIRTRPPRLPRPRPRPNWVPRP | shrunken log2 fold change | -0.159 |
| RRIRTRPPRLPRPRPRPKRLPRP | shrunken log2 fold change | 0.2 |
| RRIRCRPPRLPRPRPRPSRKPRP | shrunken log2 fold change | -0.227 |
| RRIRHRPPRLPRPRPRPNLGPRP | shrunken log2 fold change | -0.00355 |
| RRIRVRPPRLPRPRPRPASNPRP | shrunken log2 fold change | -0.0943 |
| RRIRKRPPRLPRPRPRPYEVPRP | shrunken log2 fold change | -0.205 |
| RRIRSRPPRLPRPRPRPHKFPRP | shrunken log2 fold change | 0.00286 |
| RRIRKRPPRLPRPRPRPPVDPRP | shrunken log2 fold change | 0.0616 |
| RRIRIRPPRLPRPRPRPRDQPRP | shrunken log2 fold change | -0.0489 |
| RRIRTRPPRLPRPRPRPLDGPRP | shrunken log2 fold change | 0.0872 |
| RRIRLRPPRLPRPRPRPIESPRP | shrunken log2 fold change | 0.033 |
| RRIRGRPPRLPRPRPRPTWQPRP | shrunken log2 fold change | 0.731 |
| RRIRSRPPRLPRPRPRPSWNPRP | shrunken log2 fold change | -0.342 |
